Observed IC50 for TYRO3 (Homo sapiens), reported per entry below.

Input line: Request the reported IC50 associated with COC[C@H](C)Nc1ncc2c(OC3CCOCC3)ncc(-c3ccc(CC#N)cc3)c2n1
Output line: 0.1 to 1 µM

* * *

# IC50 per entry for AXL (Homo sapiens, UniProt P30530)

{"molecule": "CC[C@H](C)Nc1ncc2c(OC3C[C@@H](C)O[C@@H](C)C3)ncc([C@H]3CC[C@H](O)CC3)c2n1 (stereo partly shown)", "experimental-target": "AXL (Homo sapiens, UniProt P30530)", "quantity-measured": "IC50", "observed-measurement": "1 to 10 µM"}
{"molecule": "COC[C@H](C)Nc1ncc2c(OC3CCOCC3)ncc(-c3cccc(S(N)(=O)=O)c3)c2n1", "experimental-target": "AXL (Homo sapiens, UniProt P30530)", "quantity-measured": "IC50", "observed-measurement": "1 to 10 µM"}

Input line: Entry CCCC(C)Nc1ncc2c(OC3CCN(CCC(=O)N(C)C)CC3)ncc([C@H]3CC[C@H](O)CC3)c2n1 (stereo partly shown) : reported IC50 = ?
Output line: 0.1 to 1 µM

Input line: Entry to check: COC[C@H](C)Nc1ncc2c(OC3CCOCC3)ncc(C3CCCCN3)c2n1 (stereo partly shown)
Output line: 1 to 10 µM

* * *

pIC50: −log10 of the molar value.
Below are compounds with their pIC50 as measured on TYRO3 (Homo sapiens).
Sequence (Q06418 41-890): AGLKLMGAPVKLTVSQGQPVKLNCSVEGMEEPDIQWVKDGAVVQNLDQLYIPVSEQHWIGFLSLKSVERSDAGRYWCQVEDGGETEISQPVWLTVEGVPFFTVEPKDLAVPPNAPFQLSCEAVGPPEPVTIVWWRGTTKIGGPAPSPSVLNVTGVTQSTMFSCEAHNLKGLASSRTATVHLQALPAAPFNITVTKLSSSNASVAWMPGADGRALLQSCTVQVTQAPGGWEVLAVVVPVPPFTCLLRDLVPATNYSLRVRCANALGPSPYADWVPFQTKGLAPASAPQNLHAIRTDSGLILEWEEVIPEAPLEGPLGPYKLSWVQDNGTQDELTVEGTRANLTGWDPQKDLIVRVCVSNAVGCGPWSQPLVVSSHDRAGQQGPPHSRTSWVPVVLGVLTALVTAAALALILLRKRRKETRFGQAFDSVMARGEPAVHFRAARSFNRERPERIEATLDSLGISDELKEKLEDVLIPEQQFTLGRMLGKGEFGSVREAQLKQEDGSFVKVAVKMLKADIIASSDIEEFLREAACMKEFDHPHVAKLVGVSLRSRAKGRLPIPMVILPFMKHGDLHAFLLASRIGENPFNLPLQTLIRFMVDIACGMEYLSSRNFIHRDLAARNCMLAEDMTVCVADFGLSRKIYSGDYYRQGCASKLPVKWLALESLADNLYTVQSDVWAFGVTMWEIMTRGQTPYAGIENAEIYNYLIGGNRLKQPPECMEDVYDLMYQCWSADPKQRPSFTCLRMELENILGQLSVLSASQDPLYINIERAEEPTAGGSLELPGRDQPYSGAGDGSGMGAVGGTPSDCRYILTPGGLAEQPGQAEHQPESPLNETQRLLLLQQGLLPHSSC

Observe how each entry below is paired with its result.
{"compound": "COC[C@H](C)Nc1ncc2c(OC3CCOCC3)ncc([C@H]3CC[C@H](NS(C)(=O)=O)CC3)c2n1", "experimental-target": "TYRO3 (Homo sapiens)", "pIC50": "≥ 7.00"}
{"compound": "COCCN1C(C)(C)CC(Oc2ncc([C@H]3CC[C@H](O)CC3)c3nc(N[C@@H](C)COC)ncc23)CC1(C)C", "experimental-target": "TYRO3 (Homo sapiens)", "pIC50": "≥ 7.00"}
{"compound": "CC(C)C(C)Nc1ncc2c(OC3CCNCC3)ncc([C@H]3CC[C@H](O)CC3)c2n1 (some centres unmarked)", "experimental-target": "TYRO3 (Homo sapiens)", "pIC50": "≥ 7.00"}
{"compound": "COC[C@H](C)Nc1ncc2c(OC3CC(C)(C)N(C)C(C)(C)C3)ncc([C@H]3CC[C@H](O)CC3)c2n1", "experimental-target": "TYRO3 (Homo sapiens)", "pIC50": "≥ 7.00"}
{"compound": "CCOc1ncc([C@H]2CC[C@H](O)CC2)c2nc(N[C@@H](C)CC(F)(F)F)ncc12", "experimental-target": "TYRO3 (Homo sapiens)", "pIC50": "≥ 7.00"}
{"compound": "COC[C@H](C)Nc1ncc2c(O[C@H]3C[C@@H](O)C3)ncc([C@H]3CC[C@@](C)(O)CC3)c2n1", "experimental-target": "TYRO3 (Homo sapiens)", "pIC50": "≥ 7.00"}

Input line: Consider the compound C[C@@H](CC(F)(F)F)Nc1ncc2c(O[C@H]3C[C@@H](O)C3)ncc(-c3ccc(C4(C#N)CC4)cc3)c2n1 and give its measured pIC50.
Output line: ≥ 7.00

Input line: Input CCOc1ncc(CC2CCN(C)CC2)c2nc(N[C@@H](C)CC)ncc12
Output line: 6.00 to 7.00

Input line: Same question, CCCCNc1ncc2c(OC3CCNCC3)ncc([C@H]3CC[C@H](O)CC3)c2n1 this time
Output line: ≥ 7.00

Origin of values: patent US20200291018A1
